EXPERIMENTAL_TARGET: human c-Met receptor on tumor cells (A549, NCI-H441, BxPC3) (human, UniProt P08581 25-1390)
TEST: cell-based or functional assay
RESULT_TYPE: inhibition of HGF-induced proliferation of NCI-H441 cells (Figure 14B)
// unit must come after the numeric part

Measured inhibition of HGF-induced proliferation of NCI-H441 cells (Figure 14B), [224G11][MMCH chim] (antibody, human IgG1, V domains shown) VH: EVQLQQSGPELVKPGASVKISCKTSGYIFTAYTMHWVRQSLGESLDWIGGIKPNNGLANYNQKFKGKATLTVDKSSSTAYMDLRSLTSEDSAVYYCARSEITTEFDYWGQGTALTVSS VL: DIVLTQSPASLAVSLGQRATISCRASESVDSYANSFMHWYQQKPGQPPKLLIYRASNLESGIPARFSGSGSRTDFTLTINPVEADDVATYYCQQSKEDPLTFGSGTKLEMKR : 84%

# credit: patent WO2010064089A1
